biological target: heteromeric KV7.2/KV7.3 channels (KCNQ2, KCNQ3) (Homo sapiens, UniProt O43525+O43526); test: Automated patch-clamp (Sophion Qube 384) potency assay against KV7.2/KV7.3 channels; conditions: CHO-K1/Kv7.2/Kv7.3 cells; EC50 from concentration-response of shift in Vhalf, 10 concentrations up to 30 μM; read-out: Kv7.2/7.3 EC50
Labelling: EC50 reported below 4000 nM becomes y; at or above becomes n.

{"columns": ["Compound", "Classification"],
 "data": [
  ["O=C(NCCC1(C(F)(F)F)CC1)NCc1cc(OCC(F)(F)F)ncn1 [Compound 38]", "y"],
  ["O=C(NCc1ccnc(OCC(F)(F)F)c1)NCC12CC(F)(CO1)C2 [Compound 239]", "n"],
  ["Cc1cccc2c1OCC[C@H]2NC(=O)NCc1ccnc(OCC(F)(F)F)c1 [Compound 184]", "y"],
  ["CC(C)(OCCNC(=O)NCc1ccnc(OCC(F)(F)F)c1)C(F)(F)F [Compound 48]", "y"],
  ["O=C(N[C@@H](CO)c1ccnc(OCC(F)(F)F)c1)N[C@H]1CCc2ccc(F)cc21 [Compound 99]", "n"],
  ["O=C(NCc1ccnc(OCC(F)(F)F)c1)NC1COc2ccc(F)cc21 (stereo not drawn) [Compound 147]", "y"],
  ["O=C(NCc1ccnc(OCC(F)(F)F)c1)N[C@@H]1CCOc2cc(F)ccc21 [Compound 204]", "y"],
  ["O=C(NCc1ccnc(OCC(F)(F)F)c1)NC1CSc2ccccc2C1 (stereo not drawn) [Compound 149]", "y"],
  ["O=C(NCc1ccnc(OCC(F)(F)F)c1)N[C@H]1CCSc2ccccc21 [Compound 175]", "y"],
  ["O=C(NCc1ccnc(OCC(F)(F)F)c1)N[C@@H]1CCCc2c(F)cccc21 [Compound 216]", "y"],
  ["O=C(NCCC1(C(F)(F)F)CC1)NCc1ccnc(OCc2ncco2)c1 [Compound 13]", "n"],
  ["C[C@H](Oc1cc(CNC(=O)NCCC2(C(F)(F)F)CC2)ncn1)C(F)(F)F [Compound 96]", "n"],
  ["COc1ccc2c(c1)[C@H](NC(=O)NCc1cc(O[C@H](C)C(F)(F)F)ncn1)CCO2 [Compound 209]", "n"],
  ["C[C@@H](Oc1cc(CNC(=O)NCCC2(C(F)(F)F)CC2)ncn1)C(F)(F)F [Compound 91]", "y"],
  ["O=C(NCc1ccnc(OCC(F)(F)F)c1)NCC1Cc2ccccc2C1 [Compound 145]", "y"],
  ["O=C(NCc1ccnc(OCC(F)(F)F)c1)N[C@@H]1COc2c(F)cccc21 [Compound 199]", "y"],
  ["O=C(NCc1ccnc(C(O)C(F)(F)F)c1)N[C@@H]1CCc2ccc(F)cc21 (stereo partly drawn) [Compound 113]", "n"]
]}

Entry source: patent US20260207563A1
